Data origin: patent US8883415B2

# System: double-stranded bacteriophage λ cl857 DNA that is digested with HindIII restriction endonuclease
# experiment summary: Detecting nucleic acids in gels
# Type: binding
# setup conditions: POLAROID 667 B&W film; DARK READER visible light box; 1 micromolar dye
Provide the reported Sensitivity for detecting double-stranded DNA in agarose gels of each item.
// units = pg; emit number, no label

Problem: Looking for the measured Sensitivity for detecting double-stranded DNA in agarose gels of CCCCC1=C/C(=C\c2nc3c(ccc[n+]3C)o2)c2ccccc2N1c1ccccc1.[I-] , can you help?
Solution: 480

Problem: Looking for the measured Sensitivity for detecting double-stranded DNA in agarose gels of CN1C(c2ccccc2)=C/C(=C\c2nc3c(ccc[n+]3C)o2)c2ccccc21.[I-] , can you help?
Solution: 240

Problem: Looking for the measured Sensitivity for detecting double-stranded DNA in agarose gels of CC[N+](C)(CC)Cc1ccc(C2=C/C(=C\c3nc4c(ccc[n+]4C)o3)c3cc(OC)ccc3N2C)cc1 , can you help?
Solution: 240

Problem: Looking for the measured Sensitivity for detecting double-stranded DNA in agarose gels of CCN(CC)Cc1ccc(C2=C/C(=C\c3nc4c(ccc[n+]4C)o3)c3ccccc3N2C)cc1.[I-] , can you help?
Solution: 60

Problem: Looking for the measured Sensitivity for detecting double-stranded DNA in agarose gels of CCN(CC)Cc1ccc(C2=C/C(=C\c3nc4c(ccc[n+]4C)o3)c3cc(OC)ccc3N2C)cc1.[I-] , can you help?
Solution: 240

Problem: Looking for the measured Sensitivity for detecting double-stranded DNA in agarose gels of CC[N+](C)(CC)Cc1ccc(C2=C/C(=C\c3nc4c(ccc[n+]4C)o3)c3ccccc3N2C)cc1 , can you help?
Solution: 120
